Kindly supply the reported IC50 values for the records listed here.
- testedSystem: KRAS G12C (Homo sapiens, UniProt P01116+P62937, G12C)
- Sequence (P01116 1-169 isoform P01116-2 G12C): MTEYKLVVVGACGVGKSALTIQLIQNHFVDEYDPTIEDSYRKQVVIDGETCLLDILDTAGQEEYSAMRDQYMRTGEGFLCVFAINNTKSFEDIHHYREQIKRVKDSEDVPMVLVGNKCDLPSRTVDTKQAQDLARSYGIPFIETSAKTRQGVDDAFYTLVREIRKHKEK
- Sequence (P62937 whole entry): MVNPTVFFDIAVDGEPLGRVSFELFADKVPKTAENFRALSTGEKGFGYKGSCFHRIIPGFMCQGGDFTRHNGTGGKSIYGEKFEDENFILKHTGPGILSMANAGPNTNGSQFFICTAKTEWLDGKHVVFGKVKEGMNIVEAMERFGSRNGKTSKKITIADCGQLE
- experiment: Disruption of BRAF RBD interaction with Ras (FRET / MOA assay, with Cyclophilin A)
- Type: biochemical
- runParameters: read-out: KRAS G12C FRET data, IC50
- Description: This protocol may also be executed substituting other Ras proteins or nucleotides. The purpose of this biochemical assay was to measure the ability of test compounds to facilitate ternary complex formation between a nucleotide-loaded K-Ras isoform and Cyclophilin A; the resulting ternary complex disrupts binding to a BRAF^RBD construct, inhibiting K-Ras signaling through a RAF effector. Data is reported as IC50 values. […]

molecule	IC50
CCn1c(-c2cnccc2COC)c2c3cc(ccc31)-c1cc(O)cc(c1)C[C@H](NC(=O)[C@H](C(C)C)N(C)C(=O)[C@@H]1CCCN(C)C1)C(=O)N1CCC[C@H](N1)C(=O)OCC(C)(C)C2 [Example A259]	100 to 1000 nM
CCn1c(-c2cc(N3CCN(C)CC3)cnc2[C@H](C)OC)c2c3cc(ccc31)-c1csc(n1)C[C@H](NC(C)=O)C(=O)N1CCC[C@H](N1)C(=O)OCC(C)(C)C2 (atropisomer, axis not shown) [Example A340]	> 10000 nM
CCn1c(-c2cccnc2[C@H](C)OC)c2c3cc(ccc31)-c1csc(n1)C[C@H](NC(=O)[C@H](C(C)C)N(C)C(=O)N1C[C@H]3OCCN(C)[C@H]3C1)C(=O)N1CCC[C@H](N1)C(=O)OCC(C)(C)C2 (atropisomer, axis not shown) [Example A451]	100 to 1000 nM
CCn1c(-c2cccnc2[C@H](C)OC)c2c3cc(ccc31)-c1csc(n1)C[C@H](NC(=O)[C@H](CC1CC1)N(C)C(=O)N1CC(OC)C1)C(=O)N1CCC[C@H](N1)C(=O)OCC(C)(C)C2 (atropisomer, axis not shown) [Example A578]	10 to 100 nM
CCn1c(-c2cccnc2[C@H](C)OC)c2c3cc(ccc31)-c1cc(O)cc(c1)C[C@H](NC(=O)[C@H](C(C)C)N(C)C(=O)Cc1cc[nH]n1)C(=O)N1CCC[C@H](N1)C(=O)OCC(C)(C)C2 [Example A126]	10 to 100 nM
CCn1c(-c2cccnc2[C@H](C)OC)c2c3cc(cnc31)-c1csc(n1)C[C@H](NC(=O)[C@H](C(C)C)N(C)C(=O)N1CC(OC)C1)C(=O)N1CCC[C@H](N1)C(=O)OCC(C)(C)C2 [Example A612]	100 to 1000 nM
CCn1c(-c2cccnc2[C@H](C)OC)c2c3cc(ccc31)-c1csc(n1)C[C@H](NC(=O)[C@H](C(C)C)N(C)C(=O)N1CCN(C(=O)CN(C)C)CC1)C(=O)N1CCC[C@H](N1)C(=O)OCC(C)(C)C2 (atropisomer, axis not shown) [Example A290]	10 to 100 nM
CCn1c(-c2cccnc2[C@H](C)OC)c2c3cc(ccc31)-c1csc(n1)C[C@H](NC(=O)[C@H](C(C)C)N(C)C(=O)N1CC[C@H]1C(=O)NC)C(=O)N1CC(C)C[C@H](N1)C(=O)OCC(C)(C)C2 (stereo partly drawn) [Example A282]	100 to 1000 nM

Request: IC50 lookup needed for CCn1c(-c2cnccc2COC)c2c3cc(ccc31)-c1cc(O)cc(c1)C[C@H](NC(=O)[C@H](C(C)C)N(C)C(=O)[C@H]1CCN(C(C)C)C1)C(=O)N1CCC[C@H](N1)C(=O)OCC(C)(C)C2 [Example A41] , thanks.
Response: 100 to 1000 nM
